// read-out Ki, gathered for Adenosine receptor A2a (Homo sapiens) from published studies
metric.name: Ki (nM)

[A] CCCC(=O)c1sc(NC(=O)c2ccco2)nc1-c1ccccc1
[B] Nc1nc2c(cnn2CCc2ccc(-c3cccnc3)cc2)c2nc(-c3ccco3)nn12
[C] COc1cccc(-c2cc(NC(C)=O)nc(-n3nc(C)cc3C)n2)c1
[D] Nc1nc(CCCc2ccccc2)nc2cn(-c3ccccc3O)nc12
[E] O=C(Nc1nc(-c2ccccc2)c(-c2ncon2)s1)C1CC1
q: Arrange the items listed above so that Ki rises from first to last. Your reply should list the labels following the order given in the request.
a: C, B, A, E, D
(C: 1 nM, B: 1.5 nM, A: 62 nM, E: 120 nM, D: 240 nM)

====

pKi: −log10 of the molar value.
pKi values for Adenosine receptor A2a (Homo sapiens, UniProt P29274) compiled from several publications are listed below.
metric.name: pKi

Cn1cc2c(nc(NC(=O)Cc3ccccc3)n3nc(-c4ccc([N+](=O)[O-])cc4)nc23)n1; 4.62
Cc1ccc(-c2nc(N(C)C)nc3ccsc23)nc1; 7.72
Cc1nc(N)c2nn(-c3ccccc3)cc2n1; 6.61

[P] CCCOc1cnc2c(c1)[nH]c1c(=O)n(CCC)c(=O)n(CCC)c12
[Q] COc1cc(-c2cc3c([nH]2)c(=O)n(C)c(=O)n3C)ccc1OCC(=O)N1CCc2ccccc2C1
[R] CN1CCc2nc3sc(C(=O)Nc4ccc(Cl)cc4)c(N)c3cc2C1
[S] Fc1ccc(CNc2nc(NCc3ccccc3)nc3nc(-c4ccco4)nn23)cc1
[T] CCCn1c(=O)c2[nH]c([C@]34CC[C@](C(=O)OC)(CC3)CC4)nc2n(CCC)c1=O
q: Hello, I need these entries ordered by pKi, highest reading first. Thanks! Put the labels in the requested order and write them down.
a: S, T, P, R, Q

[a] Nc1c(Oc2ccccc2)ccc2c1C(=O)c1ccccc1C2=O
[b] Cc1ccc(S(=O)(=O)n2cc(CCOc3nc(NC(=N)N)c4ncn([C@@H]5O[C@H](CO)[C@@H](O)[C@H]5O)c4n3)c3ccccc32)cc1
[c] O=C(CC1CCCN1)Nc1ccc(C(=O)Nc2nccs2)cc1 (stereo not given)
q: Give the ascending ranking of the items by reported pKi. Kindly provide the labels arranged according to the requested ordering.
a: c, a, b
(c: 5.18, a: 6.00, b: 6.46)

====

Recorded Ki for compounds tested on Adenosine receptor A2a (Homo sapiens, UniProt P29274), drawn from a number of studies.
Sequence (P29274 whole entry): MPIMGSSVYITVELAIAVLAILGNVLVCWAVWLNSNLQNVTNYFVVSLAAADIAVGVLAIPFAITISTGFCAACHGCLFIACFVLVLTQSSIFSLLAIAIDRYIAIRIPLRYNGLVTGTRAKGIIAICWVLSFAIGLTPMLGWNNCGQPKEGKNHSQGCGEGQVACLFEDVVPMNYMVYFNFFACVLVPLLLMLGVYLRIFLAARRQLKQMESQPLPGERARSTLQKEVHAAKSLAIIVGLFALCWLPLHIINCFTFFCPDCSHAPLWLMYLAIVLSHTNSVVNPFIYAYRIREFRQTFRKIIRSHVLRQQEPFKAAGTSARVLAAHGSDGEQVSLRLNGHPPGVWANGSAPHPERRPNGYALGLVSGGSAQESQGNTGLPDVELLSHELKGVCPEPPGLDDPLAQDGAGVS
metric.name: Ki (nM)

[A] Cc1ccc(-c2nc(N)nc3c2cnn3CCc2ccc(C(=O)Nc3ccccc3N)cc2)o1
[B] Cn1c(=O)c2[nH]c(-c3ccc(OCC(=O)NCc4ccco4)cc3)cc2n(C)c1=O
q: Between A and B , whose recorded Ki is greater? // return label of chosen record
a: B
(B: 316 nM, A: 125 nM)

[1] N#Cc1cccc(CSc2nc(N)c(C#N)c(-c3ccco3)c2C#N)c1
[2] COc1nc(-c2ncco2)nc(N)c1C(=O)NCc1c(Cl)cccc1Cl
q: Param pair: 1 , 2 . Output: the one whose Ki is numerically greater. Please reply using the label of the selected record.
a: 1

[A] CCOC(=O)c1cnc(NC(C)C)n2nc(-c3ccco3)nc12
[B] Cc1ccc(C(=O)Nc2nc(Cl)c3cn(C(C)C)nc3n2)cc1
[C] Nc1nc(-c2ccccc2)cn2cc(-c3ccco3)nc12
q: Rank ascending by Ki. Sort the labels as requested; that list is your answer.
a: A, C, B
(A: 103 nM, C: 520 nM, B: 1100 nM)

====

Multiple publications report pKi for UniProtKB P29274; what follows is a combined list.
pKi: −log10 of the molar value.
metric.name: pKi

These solved cases illustrate the format of a correct answer.
Nc1nc(-c2ccc(NC(=O)c3ccc(O)cc3)cc2)cn2c(=O)n(-c3ccccc3)nc12; 7.39
CCn1nnc(-c2sc(NC(=O)Cc3ccccc3)nc2-c2ccccc2)n1; 6.34
Nc1nc(-c2ccc(NC(=O)CCNCCc3ccc(S(N)(=O)=O)cc3)cc2)cn2c(=O)n(-c3ccccc3)nc12; 7.97

[a] CC(Oc1ccc(-c2cc3c([nH]2)c(=O)n(C)c(=O)n3C)cc1)C(=O)Nc1ccccc1 (stereo not drawn)
[b] CCC(=O)Nc1nc(-c2ccsc2)cc(-c2ccsc2)n1
[c] COc1ccc(CCNc2nc(N)c3nc(-c4ccco4)sc3n2)cc1OC
[d] COc1cccc2cc(C(=O)NCCCO)c(=N)oc12
q: Arrange by pKi, high to low. As an answer, provide the labels arranged in the order called for.
a: a, c, d, b
(a: 7.32, c: 7.04, d: 6.20, b: 5.72)

====

Kindly find below pKi information for Adenosine receptor A2a (Homo sapiens, UniProt P29274) taken from the literature.
pKi: −log10 of the molar value.
metric.name: pKi

Cc1cccc2cc(-c3ccccc3)c(=O)oc12; 4.38
Cc1cc(C)n(-c2cc(NC(=O)CN3CCCC3)nc(-c3ccc(C)o3)n2)n1; 8.07
CCCn1c(=O)c2[nH]c(-c3ccc(OC(C)(C)C(=O)Nc4ccccc4)cc3)cc2n(CCC)c1=O; 7.27
Nc1nc(-c2cccs2)nc2cn(-c3ccccc3O)nc12; 6.39
Nc1nc(-c2ccco2)c2cnn(Cc3cccc(OCCCCC(=O)NO)c3)c2n1; 8.14

[1] Nc1nc(CCCc2ccc(O)cc2)nc2cn(-c3ccccc3)nc12
[2] CCN1CCN(CC(=O)Nc2cc(-n3nc(C)cc3C)nc(-c3ccc(C)o3)n2)CC1
q: // compare: 1 vs 2 , metric pKi, want the smaller State your choice using its label.
a: 1

====

Compiled from multiple publications: Ki readings for Adenosine receptor A2a (Homo sapiens, UniProt P29274).
metric.name: Ki (nM)

Solved entries:
CCCn1c(=O)c2[nH]c(-c3ccc(OCC(=O)Nc4ccc(F)cc4)cc3)c(Cl)c2n(CCC)c1=O; 40.7
Cn1cc2c(Cl)nc(NC(=O)c3ccc(F)cc3)nc2n1; 20500
COCCNc1nc2nn(C)cc2c2nc(-c3ccco3)nn12; 407

[P] C=CCCOc1ccc(CCCn2ncc3c2nc(N)n2nc(-c4ccco4)nc32)cc1
[Q] Nc1nc(-c2ccco2)c2ccccc2n1
[R] CCCn1c(=O)c2[nH]c(-c3ccc(OCC(=O)Nc4ccc(CC(=O)OCC)cc4)cc3)cc2n(CCC)c1=O
[S] O=C(Nc1ccc(-c2ccncc2)c(-c2ccco2)n1)C1CC1
[T] COc1ccc(C2CCN(C(=O)COc3ccc(-c4cc5c([nH]4)c(=O)n(C)c(=O)n5C)cc3OC)CC2)cc1
q: Write the entries in order, lowest recorded Ki first. Response field: labels, in requested order.
a: P, S, Q, R, T

====

Consider the following Ki data for Adenosine receptor A2a (Homo sapiens), collected from several reports.
metric.name: Ki (nM)

COc1cccc2cc(C(=O)NC3CCCCC3)c(=N)oc12; 398

[A] COc1ccc(NC(=O)Nc2nc3cn(C)cc3c3nc(-c4ccco4)nn23)cc1
[B] CCCn1c(=O)c2[nH]c(-c3ccc(OCC(=O)c4ccc(I)cc4)cc3)nc2n(CCC)c1=O
[C] CCn1c(=O)c2[nH]c(-c3ccc(OCC(=O)Nc4ccc(C#N)cc4)cc3)nc2n(CCCOC)c1=O
[D] O=C(Cc1ccc(-c2ccccc2)cc1)Nc1nc2nn(CCCc3ccccc3)cc2c2nc(-c3ccco3)nn12
q: Order the records by Ki, with each subsequent value no larger than the one before. Sort the labels as requested; that list is your answer.
a: A, D, C, B
(A: 500 nM, D: 256 nM, C: 112 nM, B: 2.14 nM)

[A] COCCN1C(=O)c2[nH]nc(-c3ccccc3O)c2C1c1ccc(F)cc1 (centres undefined)
[B] CC(C)Nc1nc2nn(C)cc2c2nc(-c3ccco3)nn12
[C] CCCn1c(=O)c2c(cc(-c3ccc(O)cc3)n2O)n(CCC)c1=O
q: Please produce an ascending ranking of these compounds based on Ki. # answer = labels listed in requested order
a: C, B, A
(C: 102 nM, B: 389 nM, A: 1230 nM)

====

pKi: −log10 of the molar value.
What follows is literature data on pKi for Adenosine receptor A2a (Homo sapiens, UniProt P29274).
metric.name: pKi

// known answers, use as guide
COC[C@@H]1CCCN1c1cc(NC(C)=O)nc(-n2nc(C)cc2C)n1; 6.49
Cn1cc2c(nc(NCCCCO)n3nc(-c4ccco4)nc23)n1; 6.60
Nc1nn(-c2ccccc2)nc1C(=O)OCc1ccccc1; 7.51
CC(C)n1cc2c(Cl)nc(NC(=O)c3ccccc3)nc2n1; 5.34

[A] CCN(C(C)=O)c1ccc(OC)c2nc(NC(=O)[C@@H]3CC[C@H](NCc4cccc(C(F)(F)F)c4)C3)sc12 (relative stereo)
[B] CCn1c(=O)c2[nH]c(-c3ccc(OCC(=O)Nc4ccc(N(C)C)cc4)cc3)nc2n(CCCOC)c1=O
q: Lowest pKi? choose A or B # reply format: chosen label
a: B
